Reference source for all entries: paper PMC5540273

# System: CHEK2;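 note: KINOMEscan kinase panel screen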
# conditionSummary: concentration: 1 μM,replicates: in singlicate; n = 1
Respond with condition met for %Inh values of 8% and above, condition not met for values below.

Example entries and their recorded answers appear below.
                                   compound      assignedclass
0  CC(C)N1C(=O)Cc2cc(Nc3ncc(C(F)(F)F)c(NCc4cccc(S(C)(=O)=O)c4)n3)ccc21  condition not met
1  CC(C)Nc1cc(-c2ccc3c(N)n[nH]c3c2)nc(N)n1 [GSK2221681]      condition met
2  COc1ccc(C[C@@H](CN)NC(=O)c2cc(Br)c(-c3ccnc4[nH]ccc34)s2)cc1.Cl.Cl [GSK1389063]      condition met

Q: Decide: is the reported value of %Inh for Cl.Oc1cc(-c2nc(-c3ccccc3)[nH]c2-c2ccncc2)ccc1Cl [SB-386023] equal to or greater than 8%?
A: condition not met

Q: Please give the result for Cc1occc1-c1nc(N)c(OC[C@@H](N)Cc2c[nH]c3ccccc23)cc1-c1cc2c(C)n[nH]c2cn1 [GSK1660450] too.
A: condition not met

Q: Please give the result for Cl.Cl.NC[C@H](CC1CCCCC1)NC(=O)c1cc(Br)c(-c2ccnc3[nH]ccc23)s1 [GSK1581427] too.
A: condition not met

Q: Please give the result for `Cc1cc(C(=O)Nc2ccc(Oc3ccc4nc(NC(=O)C5CC5)cn4n3)cc2)nn1-c1ccccc1` too.
A: condition not met

Q: Please give the result for `Cc1cc2cn[nH]c2cc1-c1cccc2c(N)c(C(N)=O)nnc12` too.
A: condition met

Q: Please give the result for Nc1nc(Nc2ccccc2)cc(-c2ccc3c(N)n[nH]c3c2)n1 [GSK2225749] too.
A: condition met
